# Test Method Notes: chemical genetic growth profiling, strain panel (AID 1159580);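 further: tested at 20 µM; growth read once vehicle control cultures reached saturation at 30 °C; 1 = growth at the plate median or of vehicle wells; lower values mean less growth of the strain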
# Experimental Setup: S. cerevisiae deletion strains, growth OD, locus YPL256C, strain CLN2, active compounds read low
In all, about 5,500 compounds went through this assay and about 2,000 (36%) were called active. Roughly 18% stayed inconclusive and do not appear here. This is one part of the list.
Strictly below 0.9 in normalized growth: label 1. Otherwise: label 0.

Task item: is_below(normalized growth, 0.9) for COc1ccccc1OCC(O)COC(N)=O (stereo not drawn) ?
Reply: label 0

Task item: Is the reported normalized growth for COc1cc(O)ccc1C(C)=O strictly below 0.9?
Reply: label 0

Task item: Field: below-cutoff. Rule: recorded normalized growth strictly less than 0.9. Subject: COc1ccc(-c2c(O)c3c(OC)c4c(cc3oc2=O)OC(C)(C)C=C4)cc1
Reply: label 0

Task item: Is normalized growth strictly under 0.9 for the entry O=[N+]([O-])c1ccc(NCc2ccc(Cl)c(Cl)c2)nc1 ?
Reply: label 1

Task item: Lab note: confirm whether the reported normalized growth for this molecule is below 0.9, equality not counting. molecule: S=C(NCCc1csc2ccccc12)Nc1ccc(Cl)cc1
Reply: label 1

Task item: Hi there! Is normalized growth for Cc1ccc2nc3c(nc2c1)-c1ccccc1C3=O below 0.9, do you know?
Reply: label 1

Task item: Given the entry CC(=O)OCC1=C(C(=O)O)N2C(=O)[C@@H](NC(=O)CSc3ccncc3)[C@H]2SC1 , would its reported normalized growth be below 0.9?
Reply: label 0

Task item: Hi there! Is normalized growth for Cc1cc2nc3c(=O)[nH]c(=O)nc-3n(C[C@@H](O)[C@@H](O)[C@@H](O)COP(=O)(O)O)c2cc1C below 0.9, do you know?
Reply: label 0

Task item: I'd appreciate it if you could check whether CC(C)C1CCC(C(=O)N[C@@H](Cc2ccccc2)C(=O)O)CC1 (stereo partly drawn) has normalized growth smaller than 0.9.
Reply: label 0

Task item: Below 0.9 on normalized growth? Entry COC(=O)c1cc([N+](=O)[O-])ccc1S(=O)(=O)Cc1ccc(Cl)cc1
Reply: label 0

Task item: Does the reported normalized growth of the following molecule sit strictly below 0.9? NNC(=O)c1oc2nc(-c3ccccc3)cc(-c3ccccc3)c2c1N
Reply: label 0

Task item: Check if normalized growth falls below 0.9 for C[N+]12CCC(CC1)C(OC(=O)C(O)(c1ccccc1)c1ccccc1)C2 (stereo not drawn) .
Reply: label 0

Task item: Lab note: normalized growth threshold 0.9. Does this molecule come in strictly under it? CN1CCC[C@H]1c1cccnc1
Reply: label 0

Task item: For COc1cc(OC)c2c(OC)c(-c3ccc4c(c3)OCO4)c(=O)oc2c1 , is the recorded normalized growth below the cut-off of 0.9?
Reply: label 0

Task item: normalized growth under 0.9? Item: CC(=O)O[C@H]1CC2CCC3C(CC[C@@]4(C)C3C[C@H]([N+]3(C)CCCCC3)[C@@H]4OC(C)=O)[C@@]2(C)C[C@@H]1N1CCCCC1 (stereo partly drawn)
Reply: label 0

Task item: Is it true that normalized growth reported for CC1SC(c2cccnc2)N(c2ccc(F)cc2F)C1=O (stereo not drawn) is less than 0.9?
Reply: label 0

Task item: Please let me know if O=[N+]([O-])c1cc(C(F)(F)F)ccc1Sc1n[nH]c(-c2cc(Cl)cc(Cl)c2)n1 shows normalized growth below 0.9.
Reply: label 1

Task item: Given the entry Cc1cc(N=Cc2cc(Cl)cc(Cl)c2O)no1 , would its reported normalized growth be below 0.9?
Reply: label 1

Task item: Confirm or reject: normalized growth of O=C(Nc1ccc(F)cc1)c1cc(Br)ccc1O lies strictly below 0.9
Reply: label 1

Task item: Lab log: compare recorded normalized growth with 0.9; is it strictly lower for O=C(O)CC[N+](=O)[O-] ?
Reply: label 0

Task item: Quick check: normalized growth of O=C(/C=C/c1ccccc1)c1ccc(O)cc1O under 0.9?
Reply: label 1

Task item: I wonder whether Cn1c(=O)c2c(ncn2C)n(C)c1=O has normalized growth below 0.9. Can you tell?
Reply: label 0

Task item: normalized growth under 0.9? Item: O=C(N[C@@H](CO)[C@H](O)c1ccc([N+](=O)[O-])cc1)C(Cl)Cl
Reply: label 0

Task item: Report whether reported normalized growth is lower than 0.9 (strictly) for CNC(C)[C@@H]1CC[C@@H](N)[C@@H](OC2[C@@H](N)C[C@@H](N)[C@H](OC3OC[C@](C)(O)[C@H](NC)[C@H]3O)[C@H]2O)O1 (stereo partly drawn)
Reply: label 0

Task item: Given CCCC(=O)Nc1ccc(OCC(O)CNC(C)C)c(C(C)=O)c1 (stereo not drawn) , is recorded normalized growth strictly lower than 0.9?
Reply: label 0

Task item: Is normalized growth strictly under 0.9 for the entry O=C(Nc1ccc([N+](=O)[O-])cc1Cl)c1cc(Cl)ccc1O ?
Reply: label 0

Task item: Report whether reported normalized growth is lower than 0.9 (strictly) for CCOC(=O)c1ccc(N=Cc2cc(Cl)cc(Cl)c2O)cc1
Reply: label 1

Task item: State whether 0.9 exceeds normalized growth recorded for O=C(OCCNc1ccc([N+](=O)[O-])cn1)c1ccc([N+](=O)[O-])o1 .
Reply: label 1

Task item: Criterion: normalized growth strictly below 0.9. Is it met by Cn1cnc2c1c(=O)[nH]c(=O)n2C ?
Reply: label 0

Task item: Consider COC1=CC23CCCN2CCc2cc4c(cc2C3C1O)OCO4 (stereo not drawn) . Does its normalized growth lie strictly below 0.9?
Reply: label 0

Task item: Quick check: does COc1ccc([C@@H](C)C(=O)c2ccc(O)cc2O)cc1 have normalized growth under 0.9?
Reply: label 0

Task item: # TODO verify normalized growth < 0.9 strictly for this molecule: Cc1csc2c(N3CCN(C(=S)Nc4ccc(C(F)(F)F)cc4)CC3)ncnc12
Reply: label 0

Task item: I'd appreciate it if you could check whether O=C(/C=C/c1ccc(O)cc1)c1ccccc1O has normalized growth smaller than 0.9.
Reply: label 1
